tested on: RNA polymerase; experiment: relative enzymatic activity vs untreated control (fraction); higher = less inhibition; details: 100 µM; incubation time: 2 h at 37 C
Listed below: relative enzymatic activity values for each entry.

Compound	Target Entity	relative enzymatic activity
CC(NCCCc1cccc(C(F)(F)F)c1)c1cccc2ccccc12.Cl (stereo not drawn)	RNA polymerase	0.817
Cl.NC1CCN(c2c(F)cc3c(=O)c(C(=O)O)cn(C4CC4)c3c2Cl)C1 (stereo not drawn)	RNA polymerase	0.809
CN(C)C1C(O)=C(C(N)=O)C(=O)C2(O)C(O)=C3C(=O)c4c(O)ccc(Cl)c4C(O)C3CC12.Cl (stereo not drawn)	RNA polymerase	0.804
CCC1OC(=O)C(C)C(=O)C(C)C(OC2OC(C)CC(N(C)C)C2O)C(C)(OC)CC(C)C(=O)C(C)C2N(CCCCn3cnc(-c4cccnc4)c3)C(=O)OC12C (stereo not drawn)	RNA polymerase	0.822
O=C1CN(N=Cc2ccc([N+](=O)[O-])o2)C(=O)N1	RNA polymerase	0.815
CN[C@@H]1[C@H](O)[C@H](NC)[C@H]2O[C@@]3(O)C(=O)C[C@@H](C)O[C@H]3O[C@@H]2[C@H]1O	RNA polymerase	0.91
CC(C)CCCC(=O)N[C@@H](CCNCS(=O)(=O)O)C(=O)N[C@H](C(=O)N[C@@H](CCNCS(=O)(=O)O)C(=O)N[C@H]1CCNC(=O)[C@H]([C@@H](C)O)NC(=O)[C@H](CCNCS(=O)(=O)O)NC(=O)[C@H](CCNCS(=O)(=O)O)NC(=O)[C@H](CC(C)C)NC(=O)[C@H](CC(C)C)NC(=O)[C@H](CCNCS(=O)(=O)O)NC1=O)[C@@H](C)O	RNA polymerase	0.813
N[C@@H]1[C@H]2CN(c3nc4c(cc3F)c(=O)c(C(=O)O)cn4-c3ccc(F)cc3F)C[C@@H]12	RNA polymerase	0.783

====

Listed below: relative enzymatic activity values for each entry.
test system: DNA gyrase; test: relative enzymatic activity vs untreated control (fraction); higher = less inhibition; conditions: 100 µM; incubation time: 2 h at 37 C

Compound	relative enzymatic activity
COC1C=COC2(C)Oc3c(C)c(O)c4c(O)c(c(C=NN5CCN(C6CCCC6)CC5)c(O)c4c3C2=O)NC(=O)C(C)=CC=CC(C)C(O)C(C)C(O)C(C)C(OC(C)=O)C1C (stereo not drawn)	0.305
NCC1OC(OC2C(N)CC(N)C(OC3OC(CO)C(O)C(N)C3O)C2O)C(N)C(O)C1O.O=S(=O)(O)O (stereo not drawn)	0.685
CCOC(=O)CCC(=O)O[C@H]1[C@H](O[C@@H]2[C@@H](C)[C@H](O[C@H]3C[C@@](C)(OC)[C@@H](O)[C@H](C)O3)[C@@H](C)C(=O)O[C@H](CC)[C@@](C)(O)[C@H](O)[C@@H](C)C(=O)[C@H](C)C[C@@]2(C)O)O[C@H](C)C[C@@H]1N(C)C	0.685

====

target: GlmU (UniProt A7ZTU1); assay: relative enzymatic activity vs untreated control (fraction); higher = less inhibition; conditions: 100 µM; incubation time: 2 h at 37 C
Sequence (A7ZTU1 whole entry, looked up): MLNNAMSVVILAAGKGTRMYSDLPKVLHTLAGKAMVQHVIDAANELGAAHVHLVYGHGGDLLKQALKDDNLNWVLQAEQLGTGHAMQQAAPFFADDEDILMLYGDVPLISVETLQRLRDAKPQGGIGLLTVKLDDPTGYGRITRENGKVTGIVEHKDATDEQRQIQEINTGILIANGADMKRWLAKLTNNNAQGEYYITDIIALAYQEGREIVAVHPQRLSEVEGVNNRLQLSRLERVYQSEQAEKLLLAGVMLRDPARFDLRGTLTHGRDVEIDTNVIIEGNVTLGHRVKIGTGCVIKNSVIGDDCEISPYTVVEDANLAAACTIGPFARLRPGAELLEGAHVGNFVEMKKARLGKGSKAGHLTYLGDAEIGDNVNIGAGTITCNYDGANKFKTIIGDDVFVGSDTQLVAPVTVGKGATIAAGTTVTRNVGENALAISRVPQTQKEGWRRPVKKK
If the reported relative enzymatic activity equals or exceeds 1, assign Fulfilled. If not, assign Not fulfilled.

Compound	Target Entity	Class Label
Cc1cc(O)c(C(=O)NC(C(=O)NC2C(=O)N3C(C(=O)O)=C(CSc4nnnn4C)CSC23)c2ccc(O)cc2)cn1 (stereo not given)	GlmU (UniProt A7ZTU1)	Not fulfilled
CC1COc2c(C3(N)CC3)c(F)cc3c(=O)c(C(=O)O)cn1c23.CS(=O)(=O)O (stereo not given)	GlmU (UniProt A7ZTU1)	Not fulfilled
COc1ccc2c(c1OC)C(=O)OC2C1c2c(cc3c(c2OC)OCO3)CCN1C.Cl (stereo not given)	GlmU (UniProt A7ZTU1)	Fulfilled
N[C@@H]1CC[C@@H](c2ccc(Cl)c(Cl)c2)c2ccccc21	GlmU (UniProt A7ZTU1)	Not fulfilled
CO/N=C(\C(=O)N[C@@H]1C(=O)N2C(C(=O)O)=C(C[N+]3(C)CCCC3)CS[C@H]12)c1csc(N)n1	GlmU (UniProt A7ZTU1)	Not fulfilled
CON=C(C(=O)NC1C(=O)N2C(C(=O)[O-])=C(COC(N)=O)CSC12)c1ccco1.[Na+] (stereo not given)	GlmU (UniProt A7ZTU1)	Fulfilled
Cc1scc2c1N(C(=O)CN1CCN(C)CC1)c1ccccc1NC2=O.Cl	GlmU (UniProt A7ZTU1)	Fulfilled

Value source: the supplement of paper PMC9446081
